assaySetup: solvent Acetone; standing 24 hours or more
Square brackets hold non-standard residues; d marks the D form. Peptide text beside a SMILES is read from it. * marks the point of attachment. Boc = CC(C)(C)OC(=O)*; Aib = CC(C)(N)C(=O)O; OcHex = C1CCC(O*)CC1; OBn = c1ccc(CO*)cc1; tBu = CC(C)(C)*; OAll = C=CCO*
endpoint: Crystal Formed

>  <molecule>
C=CCOC(=O)CCC(NC(=O)C(C)(C)NC(=O)C(Cc1ccc(OC(C)(C)C)cc1)NC(=O)OC(C)(C)C)C(=O)NCC(=O)O (stereo not shown) [Boc—Y(tBu)-Aib-E(All)-G-COOH, Boc-Y(tBu)-Aib-E(All)-G-COOH] (Boc-Y(tBu)[Aib]E(OAll)G-OH; configuration not given here)

>  <endpoint>
Crystal Formed

>  <result>
No

$$$$
>  <molecule>
CC(C)(C)OC(=O)NC(Cc1ccc(OC(C)(C)C)cc1)C(=O)NC(C)(C)C(=O)NC(CCC(=O)OC1CCCCC1)C(=O)NCC(=O)O (stereo not shown) [Boc—Y(tBu)-Aib-E(cHx)-G-COOH, Boc-Y(tBu)-Aib-E(cHx)-G-COOH] (Boc-Y(tBu)[Aib]E(OcHex)G-OH; configuration not given here)

>  <endpoint>
Crystal Formed

>  <result>
No

$$$$
>  <molecule>
COC(=O)CCC(NC(=O)C(C)(C)NC(=O)C(Cc1ccc(OC(C)(C)C)cc1)NC(=O)OC(C)(C)C)C(=O)NCC(=O)O (stereo not shown) [Boc—Y(tBu)-Aib-E(Me)-G-COOH, Boc-Y(tBu)-Aib-E(Me)-G-COOH] (Boc-Y(tBu)[Aib]E(OMe)G-OH; configuration not given here)

>  <endpoint>
Crystal Formed

>  <result>
No

$$$$
>  <molecule>
CC(C)(C)OC(=O)N[C@@H](Cc1ccc(OC(C)(C)C)cc1)C(=O)NC(C)(C)C(=O)N[C@@H](CCC(=O)OCc1ccccc1)C(=O)NCC(=O)O [Boc—Y(tBu)-Aib-E(Bzl)-G-COOH, Boc-Y(tBu)-Aib-E(Bzl)-G-COOH] (Boc-Y(tBu)[Aib]E(OBn)G-OH)

>  <endpoint>
Crystal Formed

>  <result>
Yes

$$$$

----------
assaySetup: solvent THF; standing 24 hours or more
Square brackets hold non-standard residues; d marks the D form. Peptide text beside a SMILES is read from it. * marks the point of attachment. Boc = CC(C)(C)OC(=O)*; Aib = CC(C)(N)C(=O)O; OcHex = C1CCC(O*)CC1; OBn = c1ccc(CO*)cc1; tBu = CC(C)(C)*; OAll = C=CCO*

>  <molecule>
C=CCOC(=O)CCC(NC(=O)C(C)(C)NC(=O)C(Cc1ccc(OC(C)(C)C)cc1)NC(=O)OC(C)(C)C)C(=O)NCC(=O)O (stereo not shown) [Boc—Y(tBu)-Aib-E(All)-G-COOH, Boc-Y(tBu)-Aib-E(All)-G-COOH] (Boc-Y(tBu)[Aib]E(OAll)G-OH; configuration not given here)

>  <Crystal Formed>
No

$$$$
>  <molecule>
CC(C)(C)OC(=O)N[C@@H](Cc1ccc(OC(C)(C)C)cc1)C(=O)NC(C)(C)C(=O)N[C@@H](CCC(=O)OCc1ccccc1)C(=O)NCC(=O)O [Boc—Y(tBu)-Aib-E(Bzl)-G-COOH, Boc-Y(tBu)-Aib-E(Bzl)-G-COOH] (Boc-Y(tBu)[Aib]E(OBn)G-OH)

>  <Crystal Formed>
Yes

$$$$
>  <molecule>
COC(=O)CCC(NC(=O)C(C)(C)NC(=O)C(Cc1ccc(OC(C)(C)C)cc1)NC(=O)OC(C)(C)C)C(=O)NCC(=O)O (stereo not shown) [Boc—Y(tBu)-Aib-E(Me)-G-COOH, Boc-Y(tBu)-Aib-E(Me)-G-COOH] (Boc-Y(tBu)[Aib]E(OMe)G-OH; configuration not given here)

>  <Crystal Formed>
No

$$$$
>  <molecule>
CC(C)(C)OC(=O)NC(Cc1ccc(OC(C)(C)C)cc1)C(=O)NC(C)(C)C(=O)NC(CCC(=O)OC1CCCCC1)C(=O)NCC(=O)O (stereo not shown) [Boc—Y(tBu)-Aib-E(cHx)-G-COOH, Boc-Y(tBu)-Aib-E(cHx)-G-COOH] (Boc-Y(tBu)[Aib]E(OcHex)G-OH; configuration not given here)

>  <Crystal Formed>
No

$$$$

----------
assaySetup: solvent MTBE; standing 24 hours or more
Square brackets hold non-standard residues; d marks the D form. Peptide text beside a SMILES is read from it. * marks the point of attachment. Boc = CC(C)(C)OC(=O)*; Aib = CC(C)(N)C(=O)O; OcHex = C1CCC(O*)CC1; OBn = c1ccc(CO*)cc1; tBu = CC(C)(C)*; OAll = C=CCO*

>  <compound>
C=CCOC(=O)CCC(NC(=O)C(C)(C)NC(=O)C(Cc1ccc(OC(C)(C)C)cc1)NC(=O)OC(C)(C)C)C(=O)NCC(=O)O (stereo not shown) [Boc—Y(tBu)-Aib-E(All)-G-COOH, Boc-Y(tBu)-Aib-E(All)-G-COOH] (Boc-Y(tBu)[Aib]E(OAll)G-OH; configuration not given here)

>  <Crystal Formed>
Yes

$$$$
>  <compound>
CC(C)(C)OC(=O)N[C@@H](Cc1ccc(OC(C)(C)C)cc1)C(=O)NC(C)(C)C(=O)N[C@@H](CCC(=O)OCc1ccccc1)C(=O)NCC(=O)O [Boc—Y(tBu)-Aib-E(Bzl)-G-COOH, Boc-Y(tBu)-Aib-E(Bzl)-G-COOH] (Boc-Y(tBu)[Aib]E(OBn)G-OH)

>  <Crystal Formed>
Yes

$$$$
>  <compound>
COC(=O)CCC(NC(=O)C(C)(C)NC(=O)C(Cc1ccc(OC(C)(C)C)cc1)NC(=O)OC(C)(C)C)C(=O)NCC(=O)O (stereo not shown) [Boc—Y(tBu)-Aib-E(Me)-G-COOH, Boc-Y(tBu)-Aib-E(Me)-G-COOH] (Boc-Y(tBu)[Aib]E(OMe)G-OH; configuration not given here)

>  <Crystal Formed>
Yes

$$$$
>  <compound>
CC(C)(C)OC(=O)NC(Cc1ccc(OC(C)(C)C)cc1)C(=O)NC(C)(C)C(=O)NC(CCC(=O)OC1CCCCC1)C(=O)NCC(=O)O (stereo not shown) [Boc—Y(tBu)-Aib-E(cHx)-G-COOH, Boc-Y(tBu)-Aib-E(cHx)-G-COOH] (Boc-Y(tBu)[Aib]E(OcHex)G-OH; configuration not given here)

>  <Crystal Formed>
No

$$$$

----------
assaySetup: solvent MeOH; standing 24 hours or more
Square brackets hold non-standard residues; d marks the D form. Peptide text beside a SMILES is read from it. * marks the point of attachment. Boc = CC(C)(C)OC(=O)*; Aib = CC(C)(N)C(=O)O; OcHex = C1CCC(O*)CC1; OBn = c1ccc(CO*)cc1; tBu = CC(C)(C)*; OAll = C=CCO*
endpoint: Crystal Formed

>  <compound>
C=CCOC(=O)CCC(NC(=O)C(C)(C)NC(=O)C(Cc1ccc(OC(C)(C)C)cc1)NC(=O)OC(C)(C)C)C(=O)NCC(=O)O (stereo not shown) [Boc—Y(tBu)-Aib-E(All)-G-COOH, Boc-Y(tBu)-Aib-E(All)-G-COOH] (Boc-Y(tBu)[Aib]E(OAll)G-OH; configuration not given here)

>  <result>
No

$$$$
>  <compound>
CC(C)(C)OC(=O)N[C@@H](Cc1ccc(OC(C)(C)C)cc1)C(=O)NC(C)(C)C(=O)N[C@@H](CCC(=O)OCc1ccccc1)C(=O)NCC(=O)O [Boc—Y(tBu)-Aib-E(Bzl)-G-COOH, Boc-Y(tBu)-Aib-E(Bzl)-G-COOH] (Boc-Y(tBu)[Aib]E(OBn)G-OH)

>  <result>
No

$$$$
>  <compound>
CC(C)(C)OC(=O)NC(Cc1ccc(OC(C)(C)C)cc1)C(=O)NC(C)(C)C(=O)NC(CCC(=O)OC1CCCCC1)C(=O)NCC(=O)O (stereo not shown) [Boc—Y(tBu)-Aib-E(cHx)-G-COOH, Boc-Y(tBu)-Aib-E(cHx)-G-COOH] (Boc-Y(tBu)[Aib]E(OcHex)G-OH; configuration not given here)

>  <result>
No

$$$$
>  <compound>
COC(=O)CCC(NC(=O)C(C)(C)NC(=O)C(Cc1ccc(OC(C)(C)C)cc1)NC(=O)OC(C)(C)C)C(=O)NCC(=O)O (stereo not shown) [Boc—Y(tBu)-Aib-E(Me)-G-COOH, Boc-Y(tBu)-Aib-E(Me)-G-COOH] (Boc-Y(tBu)[Aib]E(OMe)G-OH; configuration not given here)

>  <result>
No

$$$$

The measurements presented in this section are drawn from patent US20260226102A1.
